- testedSystem: African green monkey C5 (African green monkey)
- assayInfo: cell-based or functional assay
measureName: AGM Serum AP IC50, hemolysis assay, 5% serum (nM)
Field format: number, assumed nM, no unit text.

[
  {
    "binder": "H4H12175P (antibody, human IgG4, V domains shown, H4H: human IgG4 Fc with S108P hinge mutation) VH: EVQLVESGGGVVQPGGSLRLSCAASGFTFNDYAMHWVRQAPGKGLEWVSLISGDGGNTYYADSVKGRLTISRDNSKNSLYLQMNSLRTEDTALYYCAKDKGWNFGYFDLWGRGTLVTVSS VL: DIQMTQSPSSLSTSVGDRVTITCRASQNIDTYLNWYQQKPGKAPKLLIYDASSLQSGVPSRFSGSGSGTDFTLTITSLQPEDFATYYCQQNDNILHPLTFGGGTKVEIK",
    "recordedNumber": 98.5
  },
  {
    "binder": "H4H12169P (antibody, human IgG4, V domains shown, H4H: human IgG4 Fc with S108P hinge mutation) VH: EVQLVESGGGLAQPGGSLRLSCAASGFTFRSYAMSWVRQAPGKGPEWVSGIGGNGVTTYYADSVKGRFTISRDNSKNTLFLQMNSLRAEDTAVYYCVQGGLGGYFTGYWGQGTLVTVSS VL: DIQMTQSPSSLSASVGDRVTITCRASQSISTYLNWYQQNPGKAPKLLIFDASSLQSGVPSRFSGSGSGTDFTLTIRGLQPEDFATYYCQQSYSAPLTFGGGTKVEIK",
    "recordedNumber": 91.5
  }
]

# next binder below
What does the data say about its AGM Serum AP IC50, hemolysis assay, 5% serum? Entry: H4H12164P (antibody, human IgG4, V domains shown, H4H: human IgG4 Fc with S108P hinge mutation) VH: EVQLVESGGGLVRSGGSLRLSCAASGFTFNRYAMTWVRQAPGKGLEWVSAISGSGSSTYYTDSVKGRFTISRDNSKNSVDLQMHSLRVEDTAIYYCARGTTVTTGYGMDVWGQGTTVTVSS VL: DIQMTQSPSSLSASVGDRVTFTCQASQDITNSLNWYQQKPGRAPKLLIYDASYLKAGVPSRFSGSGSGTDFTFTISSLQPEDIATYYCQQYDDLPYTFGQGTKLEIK 178
